target: T1, Human B7H4 ECD (SV), splice variant, 10His_FLAG (human); test: Octet BLI, hIgG1 on Protein G (n = 1)
T1 construct: also called B7-H4-SV
readout_label: koff (s⁻¹)
Write the answer as a number in s⁻¹, unit excluded.

ZY0EPQ-E02 human IgG1 (antibody, V domains shown) VH: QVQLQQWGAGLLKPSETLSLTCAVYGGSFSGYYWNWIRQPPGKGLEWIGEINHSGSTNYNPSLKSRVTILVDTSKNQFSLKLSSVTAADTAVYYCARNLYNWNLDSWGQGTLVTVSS VL: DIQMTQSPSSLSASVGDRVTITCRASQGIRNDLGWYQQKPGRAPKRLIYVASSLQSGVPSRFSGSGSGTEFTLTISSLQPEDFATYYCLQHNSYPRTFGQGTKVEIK: 0.00252
ZY0EO5-E07 human IgG1 (antibody, V domains shown, also called ZY0E05-E07; E05-E07) VH: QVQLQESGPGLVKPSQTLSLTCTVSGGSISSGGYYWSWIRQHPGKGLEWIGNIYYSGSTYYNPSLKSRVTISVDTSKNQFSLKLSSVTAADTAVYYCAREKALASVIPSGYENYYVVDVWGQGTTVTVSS VL: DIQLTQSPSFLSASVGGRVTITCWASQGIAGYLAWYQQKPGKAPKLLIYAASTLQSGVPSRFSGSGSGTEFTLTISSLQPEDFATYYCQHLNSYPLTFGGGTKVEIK: 0.000528
ZY0EOB-F05 human IgG1 (antibody, V domains shown) VH: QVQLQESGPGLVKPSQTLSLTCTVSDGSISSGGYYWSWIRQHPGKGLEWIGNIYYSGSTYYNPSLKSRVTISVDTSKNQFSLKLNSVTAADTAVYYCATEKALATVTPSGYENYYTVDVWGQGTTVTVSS VL: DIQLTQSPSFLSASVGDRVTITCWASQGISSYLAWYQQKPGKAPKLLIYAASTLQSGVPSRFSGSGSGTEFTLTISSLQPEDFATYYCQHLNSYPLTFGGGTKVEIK: 0.000598

Now consider the entry below.
Supply koff value. Item: ZY0EQD-E02 human IgG1 (antibody, V domains shown) VH: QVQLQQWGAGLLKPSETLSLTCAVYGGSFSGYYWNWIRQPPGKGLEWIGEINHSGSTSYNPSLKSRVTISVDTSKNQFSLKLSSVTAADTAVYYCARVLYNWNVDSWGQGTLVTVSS VL: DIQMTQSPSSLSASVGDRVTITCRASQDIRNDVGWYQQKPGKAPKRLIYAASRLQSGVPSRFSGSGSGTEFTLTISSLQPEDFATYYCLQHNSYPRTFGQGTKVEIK
0.00349

Measured values drawn from patent US20240239894A1 for this set.
